assay_procedure: self-splicing fitness, log relative to wild type (ln ratio); higher = more splicing; Tetrahymena group I intron in knt gene, E. coli kanamycin selection, DiMSum; sequences stand for … in CUCUCU…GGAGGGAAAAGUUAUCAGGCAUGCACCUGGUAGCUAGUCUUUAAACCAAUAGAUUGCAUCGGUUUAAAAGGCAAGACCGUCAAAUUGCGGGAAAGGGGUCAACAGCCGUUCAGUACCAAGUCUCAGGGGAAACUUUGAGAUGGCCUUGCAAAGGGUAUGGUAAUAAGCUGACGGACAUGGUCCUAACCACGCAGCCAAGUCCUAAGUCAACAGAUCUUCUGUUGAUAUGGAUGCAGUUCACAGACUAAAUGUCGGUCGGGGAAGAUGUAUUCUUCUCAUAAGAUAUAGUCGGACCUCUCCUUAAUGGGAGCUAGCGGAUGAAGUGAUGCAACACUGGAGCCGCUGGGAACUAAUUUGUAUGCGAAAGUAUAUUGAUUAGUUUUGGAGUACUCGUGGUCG;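 further: selection with 25 µg/mL kanamycin versus none on LB agar overnight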
stated_conditions: 30 °C
Listing: self-splicing fitness (ln) of selected sequences
outcome_measure: self-splicing fitness (ln)

1. GCGCAGCAAUAUUACGGGUA : -2.4
2. GAACAGCAAUAUUACGAGUC : -2.08
3. GGUAAGCAAUAUUACGAUUG : -3.48
4. AACGAGCAAUAUUACGGAGC : -3.72
5. UAAUAGCAAUAUUACGAUCA : -0.744
6. ACGCAGCAAUAUUACGAGCU : -2.76
7. GCAGAGCAAUAUUACGUUCG : -1.91
8. UUGCAGCAAUAUUACGGAUC : -3.22
9. UUUCAGCAAUAUUACGGAGC : -3.25
10. AACGAGCAAUAUUACGGGGA : -2.72
11. GAUUAGCAAUAUUACGUGAC : -2.89
12. UUUUAGCAAUAUUACGGUAA : -1.94
13. UCAAAGCAAUAUUACGCCCU : -3.06
14. CCGCAGCAAUAUUACGUGUU : -3.84
15. CGCAAGCAAUAUUACGAAGA : -2.75
16. AAAUAGCAAUAUUACGGAAC : -4.71
17. GACGAGCAAUAUUACGUGCA : -3.06
18. AUUUAGCAAUAUUACGCCCU : 0.0873
19. CCAGAGCAAUAUUACGAGCA : -5.29
20. AGAUAGCAAUAUUACGAUUG : -1.65
21. AGAUAGCAAUAUUACGCGUC : -2.53
22. GGCGAGCAAUAUUACGAGGC : -3.5
23. UCUAAGCAAUAUUACGGGGG : -3.17
24. UACAAGCAAUAUUACGCUUU : -3.73
25. GACAAGCAAUAUUACGCUCU : -2.38
26. AGAAAGCAAUAUUACGCGCG : -0.0244
27. AACAAGCAAUAUUACGGGAU : -2.27
28. CAGGAGCAAUAUUACGUUAA : -3.28
29. UGUUAGCAAUAUUACGACAG : -1.39
30. UUCGAGCAAUAUUACGGCUA : -1.51
31. GCUCAGCAAUAUUACGGCAA : -1.98
32. CUUGAGCAAUAUUACGAAAA : -2.53
33. UGUUAGCAAUAUUACGGAGG : -2.3
34. UGUGAGCAAUAUUACGAAGU : -1.67
35. UACUAGCAAUAUUACGCCCG : 0.342
36. GAGGAGCAAUAUUACGGGAG : -4.37
37. ACUUAGCAAUAUUACGCCCA : -1.29
38. GACCAGCAAUAUUACGUCGA : -1.44
39. GUACAGCAAUAUUACGGCUG : -3.82
40. AGGUAGCAAUAUUACGUUCC : -0.904
41. GAAUAGCAAUAUUACGGUUA : -0.656
42. ACAGAGCAAUAUUACGGAGG : -3.8
43. CACCAGCAAUAUUACGAAUU : -3.18
44. AAACAGCAAUAUUACGGUCG : -1.07
45. AGGAAGCAAUAUUACGCCAC : -2.13
46. AUCAAGCAAUAUUACGCCCU : 0.228
47. CCCUAGCAAUAUUACGGUCG : -2.02
48. UAUCAGCAAUAUUACGGAAU : -2.23
49. UCUAAGCAAUAUUACGACUA : -3.07
50. GCGGAGCAAUAUUACGUUGA : -2.63
51. CCCAAGCAAUAUUACGUCAG : -4.12
52. UAAUAGCAAUAUUACGCUCU : -1.03
53. UUGCAGCAAUAUUACGCACU : -1.6
54. UCAAAGCAAUAUUACGCAAG : -2.18
55. GAACAGCAAUAUUACGAUGU : -1.05
56. ACUAAGCAAUAUUACGUUGU : -3.58
57. AUGUAGCAAUAUUACGUCUG : -1.94
58. GCCCAGCAAUAUUACGAUCU : -1.36
59. GACGAGCAAUAUUACGCCGC : -2.06
60. CCUGAGCAAUAUUACGGGAU : -3.46
61. ACUAAGCAAUAUUACGCCGA : -1.86
62. UUCAAGCAAUAUUACGAUGC : -3.39
63. GCCAAGCAAUAUUACGGAGG : -3.49
64. UAUCAGCAAUAUUACGCCUA : 0.206
65. ACAAAGCAAUAUUACGCUGA : -2.65
66. UAACAGCAAUAUUACGGAUA : -0.969
67. GAAGAGCAAUAUUACGAAGC : -3.81
